# TESTED ON: antibodies against ISV in serum sample IHUS#B09032311A3
# ASSAY INFO: ECL drug-displacement assay vs labelled SEQ ID NO:1
MEASUREMENT KIND: % reduction
Please make sure the unit comes right after the number.

# BINDER, MEASUREMENT KIND, MEASURED RESULT
data = [
    ("SEQ ID NO: 29, Wildtype VHH + A14P + R39Q + K83R + T91Y + Q108L + 1 additional A at C-terminus (A114) (VHH) VHH: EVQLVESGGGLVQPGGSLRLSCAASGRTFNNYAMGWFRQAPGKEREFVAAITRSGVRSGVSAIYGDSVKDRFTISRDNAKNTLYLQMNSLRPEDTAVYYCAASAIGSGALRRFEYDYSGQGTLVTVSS", "% reduction", "18%"),
    ("SEQ ID NO: 25, Wildtype VHH + K83R (VHH) VHH: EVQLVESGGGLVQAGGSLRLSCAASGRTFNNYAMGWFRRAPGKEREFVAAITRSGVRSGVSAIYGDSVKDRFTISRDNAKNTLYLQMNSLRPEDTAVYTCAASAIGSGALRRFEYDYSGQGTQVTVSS", "% reduction", "37%"),
    ("SEQ ID NO: 28, Wildtype VHH + A14P + R39Q + K83R + T91Y + Q108L (VHH) VHH: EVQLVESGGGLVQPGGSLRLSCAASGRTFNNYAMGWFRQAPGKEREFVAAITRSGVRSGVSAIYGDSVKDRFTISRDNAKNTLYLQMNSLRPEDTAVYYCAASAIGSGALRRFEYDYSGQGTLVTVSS", "% reduction", "90%"),
]

We next turn to a different binder, shown below.
Query :: Please report the recorded % reduction for SEQ ID NO: 23, Wildtype VHH (VHH) VHH: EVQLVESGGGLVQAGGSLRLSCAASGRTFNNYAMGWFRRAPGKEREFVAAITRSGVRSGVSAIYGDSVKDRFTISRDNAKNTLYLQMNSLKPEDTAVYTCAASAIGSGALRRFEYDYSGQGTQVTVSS .
Result :: 20%
